Readings of glycan array binding signal (z-score) for the listed binders
# target.desc: Gal3S(b1-3)[Fuc(a1-4)]GlcNAc
# test.summary: glycan array binding signal (z-score within array); higher = stronger binding
# condition.description: glycan notation: IUPAC condensed, linker removed
The entries come from a sample that favours the strongest signals as a whole.
property.name: glycan array binding signal (z-score)

# binder, property.name, measured.result
rows = [
    ("Epa1to9 (Candida glabrata) (protein) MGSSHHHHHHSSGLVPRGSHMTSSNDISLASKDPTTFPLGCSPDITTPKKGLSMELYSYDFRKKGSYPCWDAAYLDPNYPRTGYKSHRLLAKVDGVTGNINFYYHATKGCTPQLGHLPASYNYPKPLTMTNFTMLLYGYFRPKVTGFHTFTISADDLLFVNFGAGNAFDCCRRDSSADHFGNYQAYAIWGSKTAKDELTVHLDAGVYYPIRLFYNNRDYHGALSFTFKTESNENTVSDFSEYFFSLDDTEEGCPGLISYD", "glycan array binding signal (z-score)", -0.345),
    ("HA-61200 (Pseudomonas aeruginosa), Q02SP8_PSEAB (protein) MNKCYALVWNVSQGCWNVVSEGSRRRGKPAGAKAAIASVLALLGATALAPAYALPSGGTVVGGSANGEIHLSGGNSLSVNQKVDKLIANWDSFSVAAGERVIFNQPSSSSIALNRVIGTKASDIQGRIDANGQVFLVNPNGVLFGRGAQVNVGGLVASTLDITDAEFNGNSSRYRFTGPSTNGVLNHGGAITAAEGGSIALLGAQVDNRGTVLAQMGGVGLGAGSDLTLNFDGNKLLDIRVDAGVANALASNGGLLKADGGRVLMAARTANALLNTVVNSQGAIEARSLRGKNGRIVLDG", "glycan array binding signal (z-score)", 0.232),
    ("PA-IL (Pseudomonas aeruginosa), Q05097 (protein) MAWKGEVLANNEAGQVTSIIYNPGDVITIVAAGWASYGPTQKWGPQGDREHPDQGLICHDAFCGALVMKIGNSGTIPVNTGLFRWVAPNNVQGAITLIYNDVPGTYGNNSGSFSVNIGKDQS", "glycan array binding signal (z-score)", -0.225),
    ("EfCBM33A (Enterococcus faecalis), Q838S1 (protein) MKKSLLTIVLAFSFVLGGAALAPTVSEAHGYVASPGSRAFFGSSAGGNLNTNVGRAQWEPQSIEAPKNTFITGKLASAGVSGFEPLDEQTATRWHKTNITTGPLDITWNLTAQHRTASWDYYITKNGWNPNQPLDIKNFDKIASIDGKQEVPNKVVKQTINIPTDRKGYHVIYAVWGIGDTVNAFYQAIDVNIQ", "glycan array binding signal (z-score)", 2.81),
]
